Experiment: Pharmacokinetics of oral administration in Balb/C mice
Assay type: in vivo
Conditions: male, mouse, po, 30 mg/kg, P.O., plasma
Some compounds, each annotated with its measured half-life.

The following compounds have reported results that may help.
[
  {
    "compound": "O=C(Nc1cnc(-n2cccn2)c(C(F)(F)F)c1)c1cnn(-c2ccc3c4c(cccc24)C(=O)N3)c1C(F)(F)F [Example 31]",
    "half-life": "1.9 h"
  },
  {
    "compound": "O=C(Nc1ccc(-n2nccn2)c(Cl)c1)c1cnn(-c2cnc3c4c(cccc24)C(=O)N3)c1C(F)(F)F [Example 75]",
    "half-life": "3 h"
  },
  {
    "compound": "O=C(Nc1ccnc(C(F)(F)F)c1)c1cnn(-c2ccc3c4c(cccc24)C(=O)N3)c1C1CC1 [Example 55]",
    "half-life": "8.6 h"
  }
]

We next turn to a different compound, shown below.
Exam item: Sample O=C(Nc1cc(Cl)n2ncc(Cl)c2c1)c1cnn(-c2ccc3c4c(cccc24)C(=O)N3)c1C(F)(F)F [Example 13] — what was its half-life?
Marked response: 6.2 h

---

Some compounds, each annotated with its measured IC50.
System: OCI-Ly3 cells
Assay: Inhibition of proliferation of OCI-Ly3 cells (CellTiter-Glo)
Type: cell-based, human
Settings: Homo sapiens, 96 h incubation, read-out: Inhibition test of proliferation of OCI-Ly3 cells IC50
Procedure: The compound's inhibitory effect on the proliferation of TMD8 and OCI-Ly3 cells was evaluated through cell proliferation inhibition experiments. The compound's inhibitory effect on the proliferation of TMD8 and OCI-Ly3 cells was detected by the CellTiter-Glo method. The highest concentration of the compound detected was 1000 nM, 3-fold dilution, a total of 9 concentrations (1000 nM-0.15 nM). […]
Please state the figure in nM; there is no need to write the unit.

[
  {
    "compound": "Cc1nc(-c2ncc(NC(=O)c3cnn(-c4ccc5c6c(cccc46)C(=O)N5)c3C(F)(F)F)cc2C(F)(F)F)oc1C [Example 35]",
    "IC50 / nM": 263
  },
  {
    "compound": "O=C(Nc1ccnc(C(F)(F)F)c1)c1cnn(-c2ccc3c4c(cccc24)C(=O)N3)c1C1CC1 [Example 55]",
    "IC50 / nM": 211
  },
  {
    "compound": "O=C(Nc1cc(Cl)n2ncc(Cl)c2c1)c1cnn(-c2ccc3c4c(cccc24)C(=O)N3)c1C(F)(F)F [Example 13]",
    "IC50 / nM": 272
  }
]

We next turn to a different compound, shown below.
Exam item: Sample O=C(Nc1ccc(-n2nccn2)c(Cl)c1)c1cnn(-c2ccc3c4c(cccc24)C(=O)N3)c1C(F)(F)F [Example 53] — what was its IC50?
Marked response: 101

---

Test: Pharmacokinetics of oral administration in Balb/C mice
Assay type: in vivo
Settings: male, mouse, po, 30 mg/kg, P.O., plasma
Some molecules, each annotated with its measured AUC(0-inf).
Please state the figure in ng·h/mL; there is no need to write the unit.

The following molecules have reported results that may help.
[
  {
    "molecule": "O=C(Nc1ccnc(C(F)(F)F)c1)c1cnn(-c2ccc3c4c(cccc24)C(=O)N3)c1C1CC1 [Example 55]",
    "measuredValue": 472000
  },
  {
    "molecule": "O=C(Nc1ccc(-n2nccn2)c(Cl)c1)c1cnn(-c2cnc3c4c(cccc24)C(=O)N3)c1C(F)(F)F [Example 75]",
    "measuredValue": 12200
  },
  {
    "molecule": "O=C(Nc1cc(Cl)n2ncc(Cl)c2c1)c1cnn(-c2ccc3c4c(cccc24)C(=O)N3)c1C(F)(F)F [Example 13]",
    "measuredValue": 67800
  }
]

We next turn to a different molecule, shown below.
Exam item: Sample O=C(Nc1cnc(-n2nccn2)c(C(F)F)c1)c1cnn(-c2ccc3c4c(cccc24)C(=O)N3)c1C(F)(F)F [Example 49] — what was its AUC(0-inf)?
Marked response: 105000

The reported measurements were obtained from patent US20250059196A1.
